This collection of values is drawn from ChEMBL document CHEMBL1201862.

System: HCT-15
PROCEDURE DETAILS: NCI tumour cell line growth inhibition, 48 h
MEASURE NAME: GI50

Would you please look over these solved cases?
COMPOUND | ASSAY SYSTEM | GI50
OCC1OC(NC(=S)NCCC(F)(F)C(F)(F)C(F)(F)C(F)(F)C(F)(F)C(F)(F)F)C(O)C(O)C1O (configuration not stated) | HCT-15 | > 100 µM
C[N+](C)(C)CCOP(=O)(O)OP(=O)([O-])OCC1CCC(n2ccc(N)nc2=O)O1 (configuration not stated) | HCT-15 | > 100 µM
Cc1c2cccc-2ccc2c1[nH]c1ccc(Br)cc12 | HCT-15 | 3.62 µM

Input: Which GI50 is listed for OC(/C(=N/c1ccccc1)c1ccccc1)c1ccccc1 (configuration not stated) ?
Output: 29 µM

Input: // same read-out, input: O=C1Nc2ccccc2S/C1=C\c1ccccc1C(F)(F)F
Output: > 100 µM

Input: Can you handle CC(=O)c1sc2c(c1OC(=O)c1cccs1)c(=O)n(-c1ccccc1)c(=S)n2-c1ccccc1 next?
Output: 17.5 µM

Input: Subsequent entry: CN(C)CCNC(=O)c1ccccc1Nc1c(Cl)cccc1Cl
Output: 14.8 µM

Input: Next: Nc1nc(-c2ccccc2)c(-c2ccccc2)c(-c2nc(N)nc(-c3ccccc3)c2-c2ccccc2)n1
Output: > 100 µM

Input: And COc1cc(Oc2nc3c(N)cc(C(F)(F)F)cc3nc2-c2ccccc2)cc(OC)c1OC ?
Output: 3.53 µM

Input: What do we get for Cc1ns/c(=N\C(=S)N(C)C)n1C ?
Output: > 100 µM
